The origin of these recorded values is PubChem BioAssay.

Consider the following molecules and their measured growth inhibition readings.
- Method Description: inhibition of 3D7 malaria parasite growth – strain 3D7 (AID 2306);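 also: 0% = DMSO wells and 100% = chloroquine plus artemisinin control wells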
- Experimental Conditions: P. falciparum 3D7 erythrocytic growth, LDH absorbance, 72 h; at 2 µM; stronger effect = higher value
Active and inactive are the calls of the source. No rule for the calls is given here.

# Molecule, growth inhibition
records = [
    ("Cc1ccc(C(=O)Nc2cccc(CN3CCCN(Cc4ccc(O)cc4)CC3)c2)cc1", "88% (active)"),
    ("CCn1c(SC)nnc1C1CCCN(CC(=O)Nc2nc3ccc(OC)cc3s2)C1 (stereo not drawn)", "97% (active)"),
    ("Cc1nc(N)nc(N)c1-c1cccc(Cl)c1", "88% (active)"),
]

---

Listing: growth inhibition of selected molecules
- Method Description: inhibition of 3D7 malaria parasite growth – strain 3D7 (AID 2306);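 also: 0% = DMSO wells and 100% = chloroquine plus artemisinin control wells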
- Experimental Conditions: P. falciparum 3D7 erythrocytic growth, LDH absorbance, 72 h; at 2 µM; stronger effect = higher value

# Molecule, Units, growth inhibition
records = [
    ("COc1cccc(CCNCc2ccc(-c3cccc(CNC4CCCC4)c3)cc2)c1", "%", 101),
    ("CCC(C)CNC(=O)CN1CN(c2ccccc2)C2(CCN(C(=O)c3ccc(Br)cc3)CC2)C1=O (stereo not given)", "%", 88),
    ("Cc1nc2c(=O)sc3ccccc3c2n1Cc1ccccc1", "%", 95),
    ("COc1ccc2ccc(F)c(CCN3CCC(NCc4cc5c(cn4)OCCO5)CC3)c2n1", "%", 96),
    ("Cc1ccc(-n2cc(CNCCCn3ccnc3)c(-c3cccc(C)c3)n2)cc1", "%", 99),
]

---

inhibition values, listed per item
- Target: L-lactate dehydrogenase (Plasmodium falciparum (isolate CDC / Honduras)) (UniProt Q27743)
- Sequence (Q27743 whole entry, looked up): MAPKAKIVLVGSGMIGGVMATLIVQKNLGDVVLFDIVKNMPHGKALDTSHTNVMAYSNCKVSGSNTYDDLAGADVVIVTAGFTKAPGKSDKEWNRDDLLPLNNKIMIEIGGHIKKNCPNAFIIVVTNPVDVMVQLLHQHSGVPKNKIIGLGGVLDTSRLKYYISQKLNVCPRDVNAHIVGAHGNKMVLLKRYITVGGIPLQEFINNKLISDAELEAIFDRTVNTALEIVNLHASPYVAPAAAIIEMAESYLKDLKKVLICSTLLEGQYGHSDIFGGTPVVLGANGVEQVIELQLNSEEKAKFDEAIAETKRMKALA
- Method Description: PfLDH activity inhibition – cell lysate, 3D7 strain, counter-screen for P. falciparum growth inhibition project (AID 2304);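 also: 0% = vehicle and 100% = reference inhibitor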
- Experimental Conditions: P. falciparum 3D7 crude extract, LDH APAD/NBT absorbance; at 2 µM; stronger effect = higher value

# Compound, Units, inhibition
measured = [
    ("c1ccc2[nH]c(Nc3ccc(Nc4nc5ccccc5[nH]4)cc3)nc2c1", "%", 1),
    ("O=c1[nH]c(NCCCNCc2cc3c(Cl)cc(Cl)cc3[nH]2)nc2ccsc12", "%", 0),
    ("COc1ccc(-c2cccc(NC(=O)c3ccc(F)cc3)c2)cc1CN1CCCN(C)CC1", "%", 2),
    ("O=C(CN1CCN(S(=O)(=O)C=Cc2ccccc2)CC1)Nc1cc(C(F)(F)F)ccc1Cl", "%", 5),
    ("CC(C)N1CCC(N(Cc2ccc(-c3ccc(C(F)(F)F)cc3)cc2)C(=O)Cn2c(CCc3cccc(F)c3F)nc(=O)c3cccnc32)CC1", "%", 6),
    ("COc1ccc(Nc2nc(NCc3cccnc3)cc(-c3ccc(OC)cc3)n2)cc1", "%", 3),
    ("O=C(/C=C/c1ccc(Cl)c(Cl)c1)NCCCCCN1CCN(C(=O)Nc2cccc(F)c2)CC1", "%", -1),
    ("NC(=O)c1ccc(-n2cnc3cc(F)ccc32)cc1OCc1ccccc1C(F)(F)F (tested in a mixture with another compound)", "%", 3),
    ("COc1ccc(NC(=O)/C=C/c2ccccc2Cl)cc1OCCN1CCC(NCc2cccnc2)CC1", "%", 1),
    ("COc1cc(Br)c(S(=O)(=O)n2cc(CN3CCC(N)CC3)c3cc(Cl)ccc32)cc1OC", "%", -4),
    ("CCN(CC)CCCN(Cc1ccc(-c2ccc(C(F)(F)F)cc2)cc1)C(=O)Cn1c(SCc2cccc(F)c2F)cc(=O)c2ccccc21", "%", 7),
    ("CC(=O)c1ccc(-c2cccc3c(CC(=O)Nc4ccc5nccc(N6CCN(C)CC6)c5c4)cccc23)cc1", "%", -11),
    ("NCC1CCCN1Cc1ccc(-c2cccc(-c3nc4ccc(C(F)(F)F)cc4[nH]3)c2)cc1 (stereo not given)", "%", 1),
    ("CC(C)(C)c1ccc(NC(=O)c2cccc(CN3CCN(Cc4cccc(O)c4)CC3)c2)cc1", "%", -2),
    ("CC(=O)Nc1ccc(S(=O)(=O)N2CCN(c3nc(NC4CCCC4)c4ccccc4n3)CC2)cc1", "%", 1),
    ("CCCCCCCN(Cc1ccc(OC(C)(C)C(=O)OCC)cc1)C(=O)Nc1ccccc1OCC", "%", -3),
    ("COc1ccc2nccc(NC(=O)C3CCC(NCc4ccc5c(c4)NC(=O)CS5)CC3)c2c1 (stereo not given)", "%", -4),
    ("CCCNC(=O)Nc1ccc(N(C)c2ccnc(NC3CC3)n2)cc1", "%", -2),
    ("O=C(c1cc(C(=O)Nc2ccccc2F)c(=O)n(-c2ccccc2F)c1)c1cc(Cl)ccc1O", "%", 5),
    ("CN(C)c1ccc(CN2CCC(NC(=O)c3ccc(-c4ccccc4F)s3)CC2)cc1", "%", -3),
]

---

- Method Description: antimalarial activity against Dd2 strain (AID 2302);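 also: 0% = DMSO untreated growth and 100% = chloroquine plus artemisinin killed control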
- Experimental Conditions: P. falciparum Dd2 in RBCs, LDH growth readout, 72 h; at 2 µM
Active and inactive are the calls of the source.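 Rule for the calls: active = growth inhibition above 50% at the single 2 µM test dose, taken to imply half-maximal potency below 2 µM; inactive = the rest.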
Outcomes: 1 (active), 0 (inactive)

# Molecule, Class Label
rows = [
    ("COc1ccc2nccc(NC(=O)C3CCC(NCc4ccc5c(c4)NC(=O)CS5)CC3)c2c1 (configuration not stated)", 0),
    ("Clc1cc(Cl)c2c(c1)C(NCCCNc1nc3ccccc3[nH]1)CCO2 (configuration not stated)", 0),
    ("O=S(=O)(c1c(Cl)cccc1Cl)N1CCCCC(c2ccc(C(F)(F)F)cc2)=N1", 1),
    ("CCN(CC)CCN(CCN(CC)CC)c1ccc(-c2nc3cc(Cl)c(Cl)cc3[nH]2)cc1", 1),
    ("Cc1cccc(-c2nc(Nc3ccncc3)c3ccc([N+](=O)[O-])cc3n2)n1", 0),
    ("CN(C)CCNCc1cccc(-c2ccc3c(Nc4cc(O)c(Cl)cc4F)ccnc3c2)c1", 1),
    ("CC(C)(C)S[C@H]1S[C@H](SC(C)(C)C)[C@@H](OC(=O)c2ccccc2)C(OC(=O)c2ccccc2)[C@H]1OC(=O)c1ccccc1 (some centres not stated)", 0),
    ("CCCCNC(=O)[C@H](Cc1ccccc1)NC(=O)c1ccc(O)c(-c2ccc(Cl)c(Cl)c2)c1", 1),
    ("COc1ccccc1N1CCN(C(C(=O)NCc2ccc(C)cc2)c2ccc(C)cc2)CC1 (configuration not stated)", 1),
    ("CC(C)CN1CCC(COc2ccc3ncn(-c4cc(O[C@H](C)c5ccccc5C(F)(F)F)c(C(N)=O)s4)c3c2)CC1", 1),
    ("CCOc1ccc2c(NN=Cc3cccc(Cl)c3)cc(C)nc2c1", 0),
    ("Cc1ccc2[nH]c3ccccc3c(=O)c2c1", 1),
]

---

- Method Description: human hepatoma cell viability loss – ATP luminescence, cytotoxicity control for P. falciparum antimalarial project, primary screen (AID 2303);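 also: 0% = DMSO wells and 100% = digitonin-killed cells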
- Experimental Conditions: HepG2 viability, 24-48 h, at 10 µM, stronger effect = higher value
The entries below are paired with their reported inhibition.

# Molecule, inhibition (%)
measured = [
    ("O=C(NCC(NCCCNc1cc(=O)c2ccccc2[nH]1)c1cc(Br)cc(Br)c1)C1=CCCC1 (configuration not stated)", -4),
    ("N#CCCN1CCN(Cc2cccc(-c3ccc(-c4nc5ccccc5[nH]4)s3)c2)CC1", 48),
    ("CC(C)CNCc1cccc(-c2ccccc2CN(C(=O)NCCc2ccccc2)C2CCN(Cc3ccccc3)CC2)c1", 42),
    ("O=c1cc(NCCCNC2CCOc3c(Cl)cc(Cl)cc32)[nH]c2ccccc12 (configuration not stated)", -7),
    ("Cc1noc(C)c1-c1cccc(CNCc2ccc(-c3cccc(-c4nc5ccccc5[nH]4)c3)cc2)c1", 50),
    ("Cc1cccc(C(=O)N2CCN(Cc3cccc(NC(=O)c4cccs4)c3)CC2)c1", 5),
    ("COCCNCc1ccc(-c2ccc(CNc3ccc4ncccc4c3)cc2)cc1", 41),
    ("COc1cc(CNC[C@@H](O)[C@H](Cc2ccccc2)NC(=O)c2cc(C3CCCC3)cc(N3CCCCS3(=O)=O)c2)cc(OC)c1", 16),
    ("N#Cc1ccc2nc(-c3ccccc3)[nH]c2c1", 7),
    ("c1cc(-c2ccc(CN3CCCCC3)cc2)cc(-c2nc3ccccc3[nH]2)c1", 39),
    ("C=CCCCNCC(NCCCNc1cc(=O)c2ccccc2[nH]1)c1cc(Br)cc(Br)c1 (configuration not stated)", -3),
    ("CN(C)Cc1ccc(O)c(-c2ccc(C(C)(C)C)cc2)n1", -1),
]

---

- Target: L-lactate dehydrogenase (Plasmodium falciparum (isolate CDC / Honduras)) (UniProt Q27743)
- Method Description: PfLDH activity inhibition – cell lysate, 3D7 strain, counter-screen for P. falciparum growth inhibition project (AID 2304);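 also: 0% = vehicle and 100% = reference inhibitor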
- Experimental Conditions: P. falciparum 3D7 crude extract, LDH APAD/NBT absorbance; at 2 µM; stronger effect = higher value
Quick list: inhibition per entry.
Quantity: inhibition (%)

# Compound, Units, Value Reported
records = [
    ("COc1ccc(C(F)(F)F)cc1N1CCN(CCCCNC(=O)c2ccc(NC(=O)c3ccc(Cl)cc3)cc2)CC1", "%", 8),
    ("O=C(NC1CCN(Cc2ccc3c(c2)OCCO3)CC1)c1ccc(-c2cccc(C(F)(F)F)c2)s1", "%", 5),
    ("c1cc(-c2ccc(CNCc3ccsc3)cc2)cc(-c2nc3ccccc3[nH]2)c1", "%", 2),
    ("O=c1cnc2ccc(F)cc2n1CCN1CCC(NCc2cc(-c3ccccc3)cs2)CC1", "%", -2),
    ("Cc1cc(C(=O)CN2C(=O)NC(C)(c3cccc4ccccc34)C2=O)c(C)n1Cc1ccco1 (centres undefined)", "%", 0),
    ("COc1ccc(NC(=O)Nc2ccc(-c3ccccc3)cc2)cc1Cn1cnc(N2CCCNCC2)cc1=O", "%", 8),
    ("N#Cc1ccc(-c2nc3c(N4CCCC4)cccc3n2CCNCc2ccccc2)cc1", "%", -3),
    ("CCCC(C)NC(=O)[C@H]1CNCCN1C(=O)CCCc1ccccc1 (some centres undefined)", "%", 4),
    ("CNCc1ccc(-c2ccc3ccnc(N)c3c2)cc1", "%", 5),
    ("Cn1c(NC2=NC3(c4ccccn4)N=C(Nc4nc5ccccc5n4C)NC3(c3ccccn3)N2)nc2ccccc21 (centres undefined)", "%", 0),
    ("Cc1cccc2[nH]c(-c3cccc(-c4cccc(NC(=O)N[C@@H]5C[C@H]5c5ccccc5)c4)c3)nc12", "%", -1),
    ("O=C(c1cccc(Br)c1)N1CCN(c2ccc([N+](=O)[O-])c(NC3CC3)c2)CC1", "%", 3),
    ("Cc1ccc2[nH]c3ccccc3c(=O)c2c1", "%", -1),
    ("COc1ccc2nccc([C@@H](O)CN3CCC(NC(=O)c4ccc(Cl)c([N+](=O)[O-])c4)CC3)c2c1", "%", -1),
]
